Parameter: IC50. Scope: all listed entries.
Biological target: NLRP3 inflammasome (Homo sapiens, UniProt Q96P20)
Construct: IL-1beta HTRF
Sequence (Q96P20 whole entry): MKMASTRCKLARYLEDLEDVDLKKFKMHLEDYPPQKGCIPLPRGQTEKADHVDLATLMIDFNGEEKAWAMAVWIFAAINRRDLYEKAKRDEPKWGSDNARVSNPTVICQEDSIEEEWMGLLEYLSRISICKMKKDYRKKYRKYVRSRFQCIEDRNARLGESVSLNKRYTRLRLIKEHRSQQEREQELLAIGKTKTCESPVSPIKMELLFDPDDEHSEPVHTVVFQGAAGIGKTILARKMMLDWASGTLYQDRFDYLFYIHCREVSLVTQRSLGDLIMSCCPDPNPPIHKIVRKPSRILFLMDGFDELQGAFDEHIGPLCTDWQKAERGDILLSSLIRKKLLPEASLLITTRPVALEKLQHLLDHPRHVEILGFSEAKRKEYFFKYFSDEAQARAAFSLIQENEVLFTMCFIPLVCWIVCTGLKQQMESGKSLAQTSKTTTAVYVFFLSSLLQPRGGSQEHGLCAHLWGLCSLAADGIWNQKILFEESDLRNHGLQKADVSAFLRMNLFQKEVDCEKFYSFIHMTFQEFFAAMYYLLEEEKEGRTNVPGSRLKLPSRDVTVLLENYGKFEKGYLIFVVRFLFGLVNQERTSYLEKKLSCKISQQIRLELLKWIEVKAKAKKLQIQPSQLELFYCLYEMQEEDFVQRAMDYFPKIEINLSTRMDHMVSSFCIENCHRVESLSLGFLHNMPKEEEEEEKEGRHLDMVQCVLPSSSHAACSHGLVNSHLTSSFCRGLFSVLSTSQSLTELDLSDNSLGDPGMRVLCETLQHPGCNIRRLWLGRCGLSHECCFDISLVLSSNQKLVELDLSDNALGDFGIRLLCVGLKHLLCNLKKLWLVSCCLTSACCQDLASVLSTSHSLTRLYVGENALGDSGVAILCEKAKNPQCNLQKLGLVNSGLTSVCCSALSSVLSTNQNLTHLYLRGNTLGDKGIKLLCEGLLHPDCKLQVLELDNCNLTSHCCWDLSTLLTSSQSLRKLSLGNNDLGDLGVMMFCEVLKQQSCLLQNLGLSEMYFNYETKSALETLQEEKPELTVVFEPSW
Assay: IL-1β TR-FRET assay (THP-1 cells differentiated to macrophages with IFN-γ, LPS primed, ATP activated; HTRF)
Type: cell-based
Conditions: THP-1 macrophages, 50 ng/mL LPS priming, compound 30 min, 20 mM ATP 2 hours
Method: The biological activity of Compound (I) with respect to NLRP3 was determined using the following in vitro methods. IL-1β TR-FRET Assay (Reported as IC50) Monocytic THP-1 cells (ATCC: TIB-202) were maintained in accordance with the provider's instructions in RPMI media (Life Technologies, Cat #A10491-01); RPMI was supplemented with 10% heat inactivated fetal bovine serum (Corning, Cat #35-010-CV). […] HTRF signal was measured by EnVision (Perkinelmer) in accordance with the manufacturer's instructions. […]
Reported property: IC50 (nM)

{"Compound": "CN1CCC[C@@H](Nc2nc3nn(-c4ccc(Br)cc4O)cc3s2)C1 [Example 1]", "Observed measurement": 25}
{"Compound": "Cc1cc(C)c(-n2cc3sc(NCC(O)C(F)(F)F)nc3n2)c(O)c1 (centres unmarked) [Example 163]", "Observed measurement": 670}
{"Compound": "COc1cc(C)c(-n2cc3sc(N[C@@H]4CN(C)C[C@H]4F)nc3n2)c(O)c1 [Example 134]", "Observed measurement": 1500}
{"Compound": "Cc1cc(C)c(-n2cc3sc(NCC(F)F)nc3n2)c(O)c1 [Example 146]", "Observed measurement": 380}
{"Compound": "Cc1cc(C)c(-n2cc3sc(N(C)C)nc3n2)c(O)c1 [Example 49]", "Observed measurement": 1300}

* * *

Reported values of pIC50 for individual entries
System: NF-κB pathway
Test: TNF-α assay (THP-1 cells differentiated to macrophages with IFN-γ, NF-κB pathway activated with LPS; ELISA)
Type: cell-based, Human
Details: Homo sapiens, THP-1, THP-1 macrophages, compound 30 min, 50 ng/mL LPS 3 hours
pIC50: −log10 of the molar value.

{"Compound": "Cc1cc(O)c(-n2cc3sc(N[C@@H]4C[C@@H](F)CN(C)C4)nc3n2)c(COC(F)F)c1 [Example 176]", "pIC50": "< 4.52"}
{"Compound": "Cc1cc(F)cc(O)c1-n1cc2sc(N[C@@H]3CCCN(C4CC4)C3)nc2n1 [Example 12]", "pIC50": "< 5.00"}
{"Compound": "CCc1cc(C)cc(O)c1-n1cc2sc(NC[C@@H](C)O)nc2n1 [Example 87]", "pIC50": "< 4.52"}
{"Compound": "Cc1cc(C)c(-n2cc3sc(NCC(F)(F)CO)nc3n2)c(O)c1 [Example 152]", "pIC50": "< 4.52"}
{"Compound": "COC(=O)N1CCCC(Nc2nc3nn(-c4c(C)cc(C)cc4O)cc3s2)C1 (stereo not drawn) [Example 110]", "pIC50": "< 4.52"}
{"Compound": "Cc1cc(C)c(-n2cc3sc(N[C@@H]4CCCN(C)C4)nc3n2)c(O)c1 [Example 4]", "pIC50": "< 4.52"}
{"Compound": "Cc1cc(C)c(-n2cc3sc(NC4CCN(C(=O)C5(C#N)CC5)C4)nc3n2)c(O)c1 (stereo not drawn) [Example 99]", "pIC50": "< 4.52"}
{"Compound": "Cc1cc(C)c(-n2cc3sc(NC4C5CC6CC4CC(O)(C6)C5)nc3n2)c(O)c1 (stereo not drawn) [Example 151]", "pIC50": "< 5.00"}
{"Compound": "Cc1cc(O)c(-n2cc3sc(NC45CCC(O)(CC4)C5)nc3n2)c(C2CC2(F)F)c1 (stereo not drawn) [Example 149]", "pIC50": "< 4.52"}
{"Compound": "Cc1cc(C)c(-n2cc3sc(NCC(F)F)nc3n2)c(O)c1 [Example 146]", "pIC50": "< 4.52"}
{"Compound": "Cc1cc(C)c(-n2cc3sc(NC4CCN(C(=O)C5(F)CC5)C4)nc3n2)c(O)c1 (stereo not drawn) [Example 98]", "pIC50": "< 4.52"}
{"Compound": "Cc1cnc(-n2cc3sc(N[C@@H]4CCCN(C)C4)nc3n2)c(O)c1 [Example 63]", "pIC50": "< 5.00"}
{"Compound": "Cc1cc(C)c(-n2cc3sc(NC4(C(F)F)CC4)nc3n2)c(O)c1 [Example 147]", "pIC50": "< 5.00"}
{"Compound": "Cc1cc(C)c(-n2cc3sc(N[C@@H]4C[C@@H](F)CN(C)C4)nc3n2)c(O)c1 [Example 3]", "pIC50": "< 4.52"}
{"Compound": "CCN1C[C@H](F)C[C@@H](Nc2nc3nn(-c4c(O)cc(Cl)cc4C(F)F)cc3s2)C1 [Example 78]", "pIC50": "< 5.00"}
{"Compound": "CCc1cc(O)c(-n2cc3sc(N[C@@H]4C[C@@H](F)CN(C)C4)nc3n2)c(CC)c1 [Example 59]", "pIC50": "< 4.52"}
{"Compound": "Cc1cc(C)c(-n2cc3sc(NC4CC(=O)N(C)C4)nc3n2)c(O)c1 (stereo not drawn) [Example 95]", "pIC50": "< 4.52"}
{"Compound": "Cc1cc(O)c(-n2cc3sc(N[C@@H]4C[C@@H](F)CN(C)C4)nc3n2)c(C2CC2)c1 [Example 65]", "pIC50": "< 4.52"}
{"Compound": "COc1cc(C)c(-n2cc3sc(N[C@@H]4C[C@@H](F)CN(C5CC5)C4)nc3n2)c(O)c1 [Example 174]", "pIC50": "< 4.52"}
{"Compound": "Cc1cc(C)c(-n2cc3sc(N[C@@H]4CCN(C(=O)OC5CC5)C4)nc3n2)c(O)c1 [Example 153]", "pIC50": "< 4.52"}
{"Compound": "Cc1cc(C)c(-n2nc3nc(N[C@@H]4C[C@@H](F)CN(C)C4)sc3c2C)c(O)c1 [Example 70]", "pIC50": "< 4.52"}
{"Compound": "Cc1cc(C)c(-n2cc3sc(NCC4(F)CCC4)nc3n2)c(O)c1 [Example 138]", "pIC50": "< 5.00"}
{"Compound": "COCc1cc(C)cc(O)c1-n1cc2sc(N[C@@H]3C[C@@H](F)CN(C)C3)nc2n1 [Example 177]", "pIC50": "< 4.52"}
{"Compound": "CC(=O)NCCCNc1nc2nn(-c3c(C)cc(C)cc3O)cc2s1 [Example 56]", "pIC50": "< 4.52"}
{"Compound": "CNC(=O)N1CCC(Nc2nc3nn(-c4c(C)cc(C)cc4O)cc3s2)CC1 [Example 131]", "pIC50": "< 4.52"}
{"Compound": "Cc1cc(C)c(-n2cc3sc(N[C@@H]4CC[C@@H](O)C4)nc3n2)c(O)c1 [Example 44]", "pIC50": "< 5.00"}
{"Compound": "Cc1cc(C)c(-n2cc3sc(NC4CCN(C(=O)CC(F)F)C4)nc3n2)c(O)c1 (stereo not drawn) [Example 68]", "pIC50": "< 5.00"}
{"Compound": "CC(=O)N1CCCC(Nc2nc3nn(-c4c(C)cc(C)cc4O)cc3s2)C1 (stereo not drawn) [Example 108]", "pIC50": "< 4.52"}
{"Compound": "COc1cc(C)c(-n2cc3sc(N[C@@H]4C[C@@H](F)CN(C)C4)nc3n2)c(O)c1 [Example 43]", "pIC50": "< 4.52"}
{"Compound": "CCc1cc(C)cc(O)c1-n1cc2sc(NC34CCC(O)(CC3)C4)nc2n1 [Example 150]", "pIC50": "< 5.00"}
{"Compound": "CCC(=O)N1C[C@H](Nc2nc3nn(-c4c(C)cc(C)cc4O)cc3s2)[C@@H](F)C1 (racemic) [Example 105]", "pIC50": "< 4.52"}
{"Compound": "Cc1cc(C)c(-n2cc3sc(N[C@H]4COC[C@@H]4F)nc3n2)c(O)c1 (racemic) [Example 121]", "pIC50": "< 5.00"}
{"Compound": "Cc1cc(C)c(-n2cc3sc(NC4CCN(C(=O)C(F)F)C4)nc3n2)c(O)c1 (stereo not drawn) [Example 90]", "pIC50": "< 5.00"}
